- Tested on: JEG-3
- Test Summary: Primary qHTS to identify gynecologic anti-cancer compounds using libraries of approved drugs and bioactive compounds (AID 1345084); further: potency means the concentration at half of the fitted maximal effect; nearly all actives have a fitted effect of over 55% in size
- Test Conditions: Gynecologic cancer cell panel viability, ATPlite luminescence, 48 h; series mostly up to 57.5 µM
Inconclusive results are not listed. The source made the active and inactive calls. The call rests on the fitted dose curve; in most records, active means well fitted cell-killing curve with a large enough effect; inconclusive means small, poorly fitted or top-dose-only effect, or effect the other way; inactive means flat fitted curve, though single readings scatter.

[
  {
    "Substance Smiles": "Cc1cccc(C)c1-n1c(=O)c2cnc(Nc3ccc(N4CCN(C)CC4)cc3)nc2n2c3ccccc3nc12",
    "Potency": "12.6 µM (active)"
  },
  {
    "Substance Smiles": "Cc1ccc(-c2ccc3ncc4c(c3n2)n(C2CCN(C(=O)[C@H](C)O)CC2)c(=O)n4C)cn1",
    "Potency": "7.08 µM (active)"
  },
  {
    "Substance Smiles": "O=C(O)/C=C/c1ccc(-c2ccc(O)c(C34CC5CC(CC(C5)C3)C4)c2)cc1",
    "Potency": "2.82 µM (active)"
  },
  {
    "Substance Smiles": "C[C@@H]1COCCN1c1cc(C2(S(C)(=O)=O)CC2)nc(-c2cccc3[nH]ccc23)n1",
    "Potency": "7.08 µM (active)"
  },
  {
    "Substance Smiles": "COC(=O)N1CCC(n2ncc3c(N4CCOCC4)nc(-c4ccc(NC(=O)Nc5ccc(CO)cc5)cc4)nc32)CC1",
    "Potency": "15.8 µM (active)"
  },
  {
    "Substance Smiles": "Nc1nc2c(c(=O)[nH]1)C[C@@H](CCc1ccc(C(=O)N[C@@H](CCC(=O)O)C(=O)O)cc1)CN2",
    "Potency": "10 µM (active)"
  },
  {
    "Substance Smiles": "C=C1C(=O)O[C@@H]2C/C(C)=C\\C(=O)/C=C(\\C)[C@@H](OC(=O)/C(C)=C\\C)[C@H](O)[C@@H]12",
    "Potency": "7.08 µM (active)"
  },
  {
    "Substance Smiles": "CC(C)(C)c1ccc(S(=O)(=O)NCc2ccc(C(=O)Nc3cccnc3)cc2)cc1",
    "Potency": "2.24 µM (active)"
  }
]

====

- Tested on: HEK293
- Test Summary: Cytotoxic Profiling of Annotated Libraries Using Quantitative High-Throughput Screening (AID 1296008); further: on the % scale 0 is the no-effect control and ±100 the full control effect; nearly all actives have a fitted effect of over 60% in size
- Test Conditions: Five cell lines viability, CellTiter-Glo ATP luminescence, 48-72 h; active compounds read low
Results filed as inconclusive are left out.
Catalogue of max response values

[
  {
    "Compound": "COc1cccc2cc3c(c(O[C@@H]4O[C@H](CO[C@@H]5O[C@H](CO)[C@@H](O)[C@H](O)[C@H]5O)[C@@H](O)[C@H](O)[C@H]4O)c12)C(C)OC3=O (some centres undefined)",
    "max response [%]": 2.15
  },
  {
    "Compound": "C/C(=C\\CCC1(C)C2CCC(C2)C1(C)O)C(=O)O (centres undefined)",
    "max response [%]": -6.56
  },
  {
    "Compound": "CCOc1cc(CC(=O)NC(CC(C)C)c2ccccc2N2CCCCC2)ccc1C(=O)O (centres undefined)",
    "max response [%]": -4.19
  },
  {
    "Compound": "CC1=CC(=O)C2(OC3OC(C)C(O)C(OC(=O)/C=C/c4ccccc4)C3O)C=COC(OC3OC(CO)C(O)C(O)C3O)C12 (centres undefined)",
    "max response [%]": -0.0394
  },
  {
    "Compound": "C=C1CCC2C(C)(C)CCC[C@]2(C)[C@H]1C/C=C(\\CO)C(=O)C(=O)O (some centres undefined)",
    "max response [%]": 1.79
  },
  {
    "Compound": "COc1ccccc1Oc1ccc(N(Cc2cccnc2)S(=O)(=O)CC(F)(F)F)cc1",
    "max response [%]": 4.88
  },
  {
    "Compound": "CC(C)C(N)C(=O)OCCOCn1cnc2c(=O)[nH]c(N)nc21 (centres undefined)",
    "max response [%]": 1.16
  },
  {
    "Compound": "CC1(C)CC2C=C(C(=O)O)C3COC(=O)C(O)(CO)C23C1 (centres undefined)",
    "max response [%]": 4.03
  },
  {
    "Compound": "O=C(OC1C=C(CO)C2C(OC3OC(CO)C(O)C(O)C3O)OC=CC12)c1ccc(O)cc1 (centres undefined)",
    "max response [%]": -4.58
  }
]

====

- Tested on: HaCat
- Test Summary: Cytotoxic Profiling of Annotated Libraries Using Quantitative High-Throughput Screening (AID 1296008); further: on the % scale 0 is the no-effect control and ±100 the full control effect; nearly all actives have a fitted effect of over 60% in size
- Test Conditions: Five cell lines viability, CellTiter-Glo ATP luminescence, 48-72 h; active compounds read low
Inconclusive results are not listed.

[
  {
    "Molecule": "CC(O)/C=C/C1(O)C2(C)COC1(C)CC(O)C2 (configuration not stated)",
    "Measure Unit": "%",
    "max response": -4.33
  },
  {
    "Molecule": "CC1OC(OC2CCC3(C)C(CCC4(C)C3CC=C3C5CC(C)(C)CCC5(C(=O)OC5OC(CO)C(O)C(O)C5O)CCC34C(=O)O)C2(C)C)C(O)C(O)C1O (configuration not stated)",
    "Measure Unit": "%",
    "max response": -11.4
  },
  {
    "Molecule": "CC1(C)CC[C@]2(C(=O)O[C@@H]3O[C@H](CO[C@@H]4O[C@H](CO)[C@@H](O)[C@H](O)[C@H]4O[C@@H]4O[C@H](CO)[C@H](O)[C@H](O)[C@H]4O)[C@@H](O)[C@H](O[C@@H]4O[C@H](CO)[C@@H](O)[C@H](O)[C@H]4O)[C@H]3O)CC[C@]3(C)C(=CCC4[C@@]5(C)CC[C@H](O[C@@H]6OC[C@@H](O)[C@H](O)[C@H]6O)[C@@](C)(C(=O)O)C5CC[C@]43C)[C@@H]2C1 (some centres not stated)",
    "Measure Unit": "%",
    "max response": -16.1
  },
  {
    "Molecule": "OC/C=C/C=C/[C@H]1Cc2cc(O)cc(O)c2O1",
    "Measure Unit": "%",
    "max response": -12.2
  },
  {
    "Molecule": "CC(C)C1=CC2C(CC[C@]2(C)O)[C@](C)(O)CC1 (some centres not stated)",
    "Measure Unit": "%",
    "max response": 2.33
  },
  {
    "Molecule": "CC(O)/C=C/C1C(C)C(O[C@@H]2O[C@H](CO)[C@@H](O)[C@H](O)[C@H]2O)C(O)CC1(C)C (some centres not stated)",
    "Measure Unit": "%",
    "max response": 1.9
  },
  {
    "Molecule": "O=C(CCc1nnc2n(Cc3ccc(Cl)cc3)c(=O)c3ccccc3n12)NCCC1=CCCCC1",
    "Measure Unit": "%",
    "max response": 3.41
  },
  {
    "Molecule": "CCCn1c(=O)c2[nH]c(-c3ccc(OCC(=O)O)cc3)nc2n(CCC)c1=O",
    "Measure Unit": "%",
    "max response": -4.84
  },
  {
    "Molecule": "O=C(OCC1=CC(O)C2C=CO[C@@H](O[C@@H]3O[C@H](CO)[C@@H](O)[C@H](O)[C@H]3O)C12)c1ccccc1 (some centres not stated)",
    "Measure Unit": "%",
    "max response": 1.81
  },
  {
    "Molecule": "Cc1nc(C)c(-c2ccc(C3CCC(CC(=O)O)CC3)cc2)nc1C(N)=O (configuration not stated)",
    "Measure Unit": "%",
    "max response": -2.77
  },
  {
    "Molecule": "CCC(O)C(C)C1CCC(C(C)C(=O)O)O1 (configuration not stated)",
    "Measure Unit": "%",
    "max response": 3.27
  },
  {
    "Molecule": "Cc1cccc(Oc2cnc(=O)[nH]c2)c1",
    "Measure Unit": "%",
    "max response": -9.89
  },
  {
    "Molecule": "COc1ccc([C@H]2CNC(=O)C2)cc1OC1CCCC1",
    "Measure Unit": "%",
    "max response": -27.2
  },
  {
    "Molecule": "COC(=O)c1ccc(OC(CO)C(O)c2ccc(O)c(OC)c2)c(OC)c1 (configuration not stated)",
    "Measure Unit": "%",
    "max response": 1.74
  },
  {
    "Molecule": "C=C[C@]1(C)C[C@H](O)[C@@H]2[C@H](OC(=O)[C@@H]2C)C1/C(C)=C/O[C@@H]1O[C@H](CO)[C@@H](O)[C@H](O)[C@H]1O (some centres not stated)",
    "Measure Unit": "%",
    "max response": -9.44
  },
  {
    "Molecule": "CS(=O)(=O)N(CC(=O)NCC1CC1)c1cc(C(F)(F)F)ccc1Cl",
    "Measure Unit": "%",
    "max response": -2.56
  },
  {
    "Molecule": "CCOC(=O)c1cc(C#N)c(N2CCC(C(=O)NS(=O)(=O)Cc3ccccc3)CC2)nc1C",
    "Measure Unit": "%",
    "max response": 2.62
  }
]
